All values here come from ChEMBL document CHEMBL4145621.

target: Carbonic anhydrase 1 (Homo sapiens); assay: Inhibition of recombinant human cytosolic CA1 preincubated for 15 mins by phenol red dye-based stopped-flow CO2 hydration assay
Sequence (P00915 whole entry): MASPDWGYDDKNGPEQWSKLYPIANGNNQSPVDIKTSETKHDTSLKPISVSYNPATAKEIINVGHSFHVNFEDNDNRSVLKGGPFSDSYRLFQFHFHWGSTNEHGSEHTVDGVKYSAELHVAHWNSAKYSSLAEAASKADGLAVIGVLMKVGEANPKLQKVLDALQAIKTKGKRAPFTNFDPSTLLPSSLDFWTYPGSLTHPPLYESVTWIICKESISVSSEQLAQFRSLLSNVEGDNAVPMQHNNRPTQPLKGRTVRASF
QUANTITY KIND: Ki

compound=NS(=O)(=O)c1ccc(-n2ncc3c2-c2cnc(-c4ccccc4)nc2CC3)cc1 observed_result="> 10 µM"
